# Tested on: WEE2
# condition.label: concentration: 1 μM, replicates: in singlicate; n = 1;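 note: KINOMEscan kinase panel screen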
readout.name: %Inh (%)
Your answer should be a plain number; it is taken to be in %.

| compound | value |
| --- | --- |
| COc1ccccc1CNC(=O)c1cc(C(=O)c2ccccc2C)c[nH]1 [GSK364507] | 12 |
| Cn1ccc2ncnc(Oc3ccc(NC(=O)Nc4ccccc4)cc3)c21 | 0 |
| NC(=O)c1nnc2ccccc2c1N | 20 |

%Inh recorded for this compound, Cc1cccc(-c2nc(Nc3ccncc3)c3ccccc3n2)n1 [GW855857] , is 8

%Inh recorded for this compound, Cc1ccc(-c2cc(-c3c[nH]nc3-c3ccccn3)ccn2)cc1 [GW684088] , is 0

* * *

# Test system: ERK4
# Construct: gene MAPK4
# condition.label: concentration: 1 μM, replicates: in singlicate; n = 1
readout.name: %Inh (%)
Your answer should be a plain number; it is taken to be in %.

Solved entries:
| compound | readout.name | value |
| --- | --- | --- |
| CN1C(=O)C(Nc2ccc(Cl)c(C(=O)O)c2)=C(c2ccc(Cl)cc2)C1=O [SB-404290] | %Inh | 0 |
| Nc1nc(-c2nccs2)c(-c2ccnc3ccccc23)s1 [GW693542] | %Inh | 18 |
| COc1ccc(C2=C(Nc3cccc(C(=O)O)c3)C(=O)NC2=O)cc1 [SB-390765] | %Inh | 1 |

%Inh recorded for this compound, Cn1ccc2ncnc(Oc3ccc(Nc4nc5ccccc5[nH]4)cc3)c21 , is 0

%Inh recorded for this compound, O=C(Nc1ccc2c(c1)OCO2)NC1CCN(c2ccnc(Nc3ccc(F)cc3)n2)C1 (stereo not drawn) [GSK1379724] , is 0

%Inh recorded for this compound, Cc1cc(NCC(c2ccccc2)c2ccccc2)nc(NCc2ccc(C(F)(F)F)cc2)n1 [GW497681] , is 5

* * *

# System: BRK
# Construct: gene PTK6
# condition.label: concentration: 1 μM, replicates: in singlicate; n = 1
The following compounds are listed with their measured %Inh values.
Your answer should be a plain number; it is taken to be in %.

| compound | readout.name | value |
| --- | --- | --- |
| COc1ccc(CNC(=O)NC2CCN(c3ccnc(Nc4cc(OC)c(OC)c(OC)c4)n3)C2)cc1 (stereo not shown) | %Inh | 3 |
| Nc1nc(-c2nccs2)c(-c2ccnc3ccccc23)s1 | %Inh | 3 |
| O=C(Nc1n[nH]c2nc(-c3nccs3)c(Br)cc12)C1CC1 | %Inh | 2 |
| Cl.NC(=O)c1cccc(Nc2nccc(Nc3ccc(Oc4cccc(Cl)c4)c(Cl)c3)n2)c1 | %Inh | 69 |
| Cl.c1ccc(-c2n[nH]cc2-c2ccnc(-c3ccc(CN4CCOCC4)cc3)c2)nc1 | %Inh | 0 |

%Inh recorded for this compound, CC(C)(C)c1ccc(C(=O)Nc2cn3cc(-c4cccnc4)ccc3n2)cc1 , is 0

* * *

The following molecules are listed with their measured %Inh values.
# Test system: FER
# condition.label: concentration: 1 μM, replicates: in singlicate; n = 1
Your answer should be a plain number; it is taken to be in %.

Solved entries:
| molecule | %Inh [%] |
| --- | --- |
| Cl.c1ccc(-c2n[nH]cc2-c2ccnc(-c3ccc(CN4CCOCC4)cc3)c2)nc1 [GW776245] | 3 |
| COc1cc2ncnc(Nc3ccc4nc(-c5ccccc5)[nH]c4c3)c2cc1OC.Cl [GW282450] | 42 |
| Cl.NC(=O)c1cccc(Nc2nccc(Nc3ccc(Oc4cccc(Cl)c4)c(Cl)c3)n2)c1 [GW659008] | 9 |

Lab note: next molecule to report on.
%Inh recorded for this molecule, CN(C)CCN(C)C(=O)c1cc(-c2ccncc2)c(-c2ccc(Cl)c(O)c2)o1.Cl.Cl [SB-710397] , is 0

* * *

# System: NEK9
# condition.label: concentration: 1 μM, replicates: in singlicate; n = 1
Assign true to entries whose %Inh meets or exceeds 40%; assign false to the rest.

These recorded examples may help you get a feel for the data.
| compound | target.system | discrete.label |
| --- | --- | --- |
| COc1ccc(C2=C(Nc3cccc(C(=O)O)c3)C(=O)NC2=O)cc1 | NEK9 | false |
| Cc1nnc(-c2ccc3occ(-c4ccc(S(C)=O)cc4)c3c2)[nH]1 (centres unmarked) | NEK9 | false |
| Cc1csc(-c2nc(Nc3ccncc3)c3ccccc3n2)n1 | NEK9 | false |
| Cc1cccc(-c2nc(C)cc(Nc3ccncc3)n2)n1 | NEK9 | true |

Q) Does COc1cccc(NC(=O)NC2CCN(c3ccnc(Nc4ccc(F)cc4)n3)C2)c1 (centres unmarked) have a reported %Inh of at least 40%?
A) false

* * *

# Tested on: EGFR
# condition.label: concentration: 1 μM, replicates: in singlicate; n = 1
readout.name: %Inh (%)
Your answer should be a plain number; it is taken to be in %.

Solved entries:
| smi | value |
| --- | --- |
| CCn1c(-c2cccnc2O)nc2cnccc21 | 7 |
| Fc1cc(Cl)ccc1Nc1ccnc2cc(-c3ccc(CN4CCCCC4)o3)ccc12 | 27 |

%Inh recorded for this molecule, Fc1cc(Cl)ccc1Nc1ccnc2cc(I)ccc12 , is 21

* * *

# Tested on: FLT4
# condition.label: concentration: 1 μM, replicates: in singlicate; n = 1
readout.name: %Inh (%)
Your answer should be a plain number; it is taken to be in %.

Solved entries:
| smi | units | %Inh |
| --- | --- | --- |
| CS(=O)(=O)c1ccc(-c2nc3n(c2-c2ccncc2)CCC3)cc1 | % | 0 |
| Cc1ccc(NC(=O)Nc2cc(C(C)(C)C)nn2-c2ccccc2)cc1 | % | 15 |
| COC(=O)c1c(-c2ccccc2)c2cc(C(=O)O)ccc2c(=O)n1Cc1ccccc1 | % | 0 |

%Inh recorded for this compound, Nc1nc(-c2nccs2)c(-c2ccnc3ccccc23)s1 , is 0

* * *

# Tested on: TNIK
# condition.label: concentration: 1 μM, replicates: in singlicate; n = 1
readout.name: %Inh (%)
Your answer should be a plain number; it is taken to be in %.

| molecule | target.system | units | %Inh |
| --- | --- | --- | --- |
| O=S(=O)(c1ccc(-c2ccnc3[nH]ccc23)cc1)N1CCCC1 [GSK846226] | TNIK | % | 0 |
| Cc1nnc(-c2ccc3occ(-c4ccc(S(C)=O)cc4)c3c2)[nH]1 (centres unmarked) | TNIK | % | 5 |
| Cc1ccc(NC(=O)Nc2cc(C(C)(C)C)nn2-c2ccccc2)cc1 [GSK1014915] | TNIK | % | 0 |
| COc1ccc(C2=C(Nc3cccc(C(=O)O)c3)C(=O)NC2=O)cc1 [SB-390765] | TNIK | % | 0 |
| Cc1c(O)cccc1Nc1ccnc2ccc(C(F)(F)F)cc12.Cl [GW466413] | TNIK | % | 0 |

Lab note: next molecule to report on.
Note to self: %Inh of Cc1cc(N2Cc3ccccc3C2)nc(Nc2ccc(S(=O)(=O)N3CCOCC3)cc2)n1.Cl [GSK1669917] with TNIK was 0

* * *

The following compounds are listed with their measured %Inh values.
# System: BMPR1B
# condition.label: concentration: 1 μM, replicates: in singlicate; n = 1
Your answer should be a plain number; it is taken to be in %.

| compound | units | %Inh |
| --- | --- | --- |
| COc1cc2ncn(-c3cc(OCC4CCCO4)c(C(N)=O)s3)c2cc1OC (stereo not drawn) [GSK204607] | % | 0 |

Note to self: %Inh of COc1cc2nccc(Nc3ccc(NC(=O)c4ccc(C)cc4)c(O)c3)c2cc1OC.Cl [GW440132] with BMPR1B was 0

Note to self: %Inh of C[C@@H]1CCCCN1c1cc(-c2ccc3c(N)n[nH]c3c2)nc(N)n1 [GSK2258759] with BMPR1B was 0

* * *

# System: EPHB6
# condition.label: concentration: 1 μM, replicates: in singlicate; n = 1
The following molecules are listed with their measured %Inh values.
Your answer should be a plain number; it is taken to be in %.

Solved entries:
| molecule | units | %Inh |
| --- | --- | --- |
| COc1ccc(CNC(=O)NC2CCN(c3ccnc(Nc4cc(OC)c(OC)c(OC)c4)n3)C2)cc1 (stereo not drawn) | % | 91.8 |
| Cc1nnc(-c2ccc3occ(-c4ccc(S(C)=O)cc4)c3c2)[nH]1 (stereo not drawn) | % | 13 |
| Cc1ccc(NC(=O)Nc2cccc(Cl)c2)cc1-c1ccc(C(=O)Nc2ccncc2)cc1 | % | 0 |

%Inh recorded for this molecule, Cc1ccccc1-n1cnc2c(N)ncnc21 , is 7

%Inh recorded for this molecule, C[C@@H]1CCCCN1c1cc(-c2ccc3c(N)n[nH]c3c2)nc(N)n1 , is 14

%Inh recorded for this molecule, Cc1cccc(-c2nc(-c3ccc(S(C)(=O)=O)cc3)sc2-c2ccnc(NCCc3ccccc3)c2)c1 , is 0
